Sourced from ChEMBL document CHEMBL4808236

Record form. Attribute: IC50. Fill in for each entry.
- Tested on: A549
- test.name: Antiproliferative activity against human A549 cells assessed as reduction in cell viability measured after 72 hrs by SRB assay
- study.conditions: A549, 72 h

Data request, read-out IC50, for CCCC(=O)OCC1=C[C@H]2[C@@H]3C(C)(C)[C@]3(OC(=O)CCC)[C@H](OC(=O)/C=C/c3ccc(OC(C)=O)c(OC)c3)[C@@H](C)[C@]2(O)[C@@H]2C=C(C)C(=O)[C@@]2(O)C1
3.71 µM

Data request, read-out IC50, for C/C=C/C(=O)O[C@@H]1[C@@H](C)[C@@]2(O)[C@@H](C=C(CO)C[C@]3(O)C(=O)C(C)=C[C@@H]23)[C@@H]2C(C)(C)[C@]12OC(=O)/C=C/C
> 10 µM

Data request, read-out IC50, for CC1=C[C@H]2[C@@]3(O)[C@H](C)[C@@H](O)[C@]4(OC(=O)/C=C/c5ccccc5)C([C@@H]3C=C(CO)C[C@]2(O)C1=O)C4(C)C (single isomer, unassigned)
> 10 µM

Data request, read-out IC50, for C/C=C(/C)C(=O)O[C@]12C([C@@H]3C=C(CO)C[C@]4(O)C(=O)C(C)=C[C@H]4[C@@]3(O)[C@H](C)[C@H]1O)C2(C)C (single isomer, unassigned)
> 10 µM

Data request, read-out IC50, for CC1=C[C@H]2[C@@]3(O)[C@H](C)[C@@H](OC(=O)/C=C/c4ccccc4)[C@]4(OC(=O)/C=C/c5ccccc5)[C@H]([C@@H]3C=C(COC(=O)/C=C/c3ccccc3)C[C@]2(O)C1=O)C4(C)C
> 10 µM

Data request, read-out IC50, for CCCC(=O)O[C@]12C([C@@H]3C=C(CO)C[C@]4(O)C(=O)C(C)=C[C@H]4[C@@]3(O)[C@H](C)[C@H]1OC(=O)/C=C/c1ccccc1)C2(C)C (single isomer, unassigned)
> 10 µM

Data request, read-out IC50, for CC/C=C/C/C=C/C/C=C/C/C=C/C/C=C/CCCC(=O)O[C@@H]1[C@@H](C)[C@@]2(O)[C@@H](C=C(CO)C[C@]3(O)C(=O)C(C)=C[C@@H]23)[C@@H]2C(C)(C)[C@]12OC(=O)CCC
> 10 µM

Data request, read-out IC50, for C/C=C/C(=O)OCC1=C[C@H]2C3C(C)(C)[C@]3(OC(=O)/C=C/C)[C@H](O)[C@@H](C)[C@]2(O)[C@@H]2C=C(C)C(=O)[C@@]2(O)C1 (single isomer, unassigned)
6.22 µM

Data request, read-out IC50, for CC(=O)OCC1=C[C@H]2[C@@H]3C(C)(C)[C@]3(OC(C)=O)[C@H](OC(C)=O)[C@@H](C)[C@]2(O)[C@@H]2C=C(C)C(=O)[C@@]2(O)C1
> 10 µM

Data request, read-out IC50, for CC(=O)O[C@@]12[C@H](OC(=O)/C=C/c3ccc(Cl)cc3)[C@@H](C)[C@@]3(O)[C@@H](C=C(CO)C[C@]4(O)C(=O)C(C)=C[C@@H]34)[C@@H]1C2(C)C
> 10 µM

Data request, read-out IC50, for CCCC(=O)O[C@]12C([C@@H]3C=C(CO)C[C@]4(O)C(=O)C(C)=C[C@H]4[C@@]3(O)[C@H](C)[C@H]1OC(=O)/C=C/c1ccc(O)c(OC)c1)C2(C)C (single isomer, unassigned)
> 10 µM

Data request, read-out IC50, for CCCCCCCCCCCCCCCCCCCC(=O)O[C@]12C([C@@H]3C=C(CO)C[C@]4(O)C(=O)C(C)=C[C@H]4[C@@]3(O)[C@H](C)[C@H]1O)C2(C)C (single isomer, unassigned)
0.08 µM

Data request, read-out IC50, for CC(=O)O[C@@]12[C@H](OC(=O)/C=C/c3ccccc3)[C@@H](C)[C@@]3(O)[C@@H](C=C(CO)C[C@]4(O)C(=O)C(C)=C[C@@H]34)[C@@H]1C2(C)C
> 10 µM

Data request, read-out IC50, for CC/C=C/C/C=C/C/C=C/C/C=C/C/C=C/CCCC(=O)OCC1=C[C@H]2[C@@H]3C(C)(C)[C@]3(OC(=O)CCC/C=C/C/C=C/C/C=C/C/C=C/C/C=C/CC)[C@H](OC(=O)CCC/C=C/C/C=C/C/C=C/C/C=C/C/C=C/CC)[C@@H](C)[C@]2(O)[C@@H]2C=C(C)C(=O)[C@@]2(O)C1
> 10 µM

Data request, read-out IC50, for CC1=C[C@H]2[C@@]3(O)[C@H](C)[C@@H](O)[C@]4(OC(=O)CCc5ccccc5)C([C@@H]3C=C(CO)C[C@]2(O)C1=O)C4(C)C (single isomer, unassigned)
> 10 µM

Data request, read-out IC50, for CC/C=C/C/C=C/C/C=C/C/C=C/C/C=C/CCCC(=O)O[C@]12C([C@@H]3C=C(CO)C[C@]4(O)C(=O)C(C)=C[C@H]4[C@@]3(O)[C@H](C)[C@H]1O)C2(C)C (single isomer, unassigned)
0.09 µM

Data request, read-out IC50, for COc1cc(/C=C/C(=O)O[C@]23C([C@@H]4C=C(CO)C[C@]5(O)C(=O)C(C)=C[C@H]5[C@@]4(O)[C@H](C)[C@H]2O)C3(C)C)ccc1C(C)=O (single isomer, unassigned)
> 10 µM

Data request, read-out IC50, for CC/C=C/C/C=C/C/C=C/C/C=C/C/C=C/CCCC(=O)O[C@@H]1[C@@H](C)[C@@]2(O)[C@@H](C=C(CO)C[C@]3(O)C(=O)C(C)=C[C@@H]23)[C@@H]2C(C)(C)[C@]12OC(C)=O
> 10 µM

Data request, read-out IC50, for CCCCCCCCCCCCCCCCCCCC(=O)O[C@@H]1[C@@H](C)[C@@]2(O)[C@@H](C=C(CO)C[C@]3(O)C(=O)C(C)=C[C@@H]23)[C@@H]2C(C)(C)[C@]12OC(=O)CCCCCCCCCCCCCCCCCCC
> 10 µM

---

Record form. Attribute: IC50. Fill in for each entry.
- Tested on: Human immunodeficiency virus 1
- test.name: Antiviral activity against HIV-1 NL4-3 infected in human MT4 cells assessed as reduction in p24 production treated at 48 hrs post-infection and measured on day 4 post-viral infection by ELISA
- Assay type: functional, organism-based
- study.conditions: Human immunodeficiency virus 1, NL4-3, MT4
State just the number; it will be interpreted in nM.

Data request, read-out IC50, for CC/C=C/C/C=C/C/C=C/C/C=C/C/C=C/CCCC(=O)O[C@@H]1[C@@H](C)[C@@]2(O)[C@@H](C=C(CO)C[C@]3(O)C(=O)C(C)=C[C@@H]23)[C@@H]2C(C)(C)[C@]12OC(C)=O
0.46

Data request, read-out IC50, for CC(=O)O[C@@]12[C@H](OC(=O)/C=C/c3ccc(Cl)cc3)[C@@H](C)[C@@]3(O)[C@@H](C=C(CO)C[C@]4(O)C(=O)C(C)=C[C@@H]34)[C@@H]1C2(C)C
0.75

Data request, read-out IC50, for CCCC(=O)OCC1=C[C@H]2C3C(C)(C)[C@]3(OC(=O)CCC)[C@H](OC(=O)/C=C/c3ccccc3)[C@@H](C)[C@]2(O)[C@@H]2C=C(C)C(=O)[C@@]2(O)C1 (single isomer, unassigned)
73.3

Data request, read-out IC50, for CCCC(=O)O[C@]12C([C@@H]3C=C(CO)C[C@]4(O)C(=O)C(C)=C[C@H]4[C@@]3(O)[C@H](C)[C@H]1OC(=O)/C=C/c1ccccc1)C2(C)C (single isomer, unassigned)
0.9

---

- Test system: Human immunodeficiency virus 1
- test.name: Antiviral activity against HIV-1 NL4-3 infected in human MT4 cells assessed as reduction in p24 production treated at 48 hrs post-infection and measured on day 4 post-viral infection by ELISA
- Assay type: functional, organism-based
- study.conditions: Human immunodeficiency virus 1, NL4-3, MT4
Record form. Attribute: IC50. Fill in for each entry.
State just the number; it will be interpreted in nM.

Data request, read-out IC50, for CC1=C[C@H]2[C@@]3(O)[C@H](C)[C@@H](O)[C@]4(OC(=O)CCc5ccccc5)C([C@@H]3C=C(CO)C[C@]2(O)C1=O)C4(C)C (single isomer, unassigned)
5460

Data request, read-out IC50, for CC1=C[C@H]2[C@@]3(O)[C@H](C)[C@@H](OC(=O)/C=C/c4ccccc4)[C@]4(OC(=O)/C=C/c5ccccc5)[C@H]([C@@H]3C=C(CO)C[C@]2(O)C1=O)C4(C)C
9.21

Data request, read-out IC50, for CC/C=C/C/C=C/C/C=C/C/C=C/C/C=C/CCCC(=O)O[C@@H]1[C@@H](C)[C@@]2(O)[C@@H](C=C(CO)C[C@]3(O)C(=O)C(C)=C[C@@H]23)[C@@H]2C(C)(C)[C@]12OC(=O)CCC
2.27
